B1: TPR t1 (parent)
chain: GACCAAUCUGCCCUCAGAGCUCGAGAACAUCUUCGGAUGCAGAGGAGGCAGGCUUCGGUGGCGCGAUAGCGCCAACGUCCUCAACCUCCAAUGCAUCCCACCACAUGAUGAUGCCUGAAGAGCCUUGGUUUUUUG

variants of: B1; test: polymerase ribozyme fitness, log enrichment relative to wild type (log ratio); higher = more active; in vitro selection for triplet polymerase activity
Below is a list of entries, each paired with its recorded polymerase ribozyme fitness (log ratio) value.
READOUT_KIND: polymerase ribozyme fitness (log ratio)

1. C62U A91U G120A = -2.6
2. C72U G120A = 0.502
3. A5U U112G = -0.587
4. U54C G77U C79A C88U = -1.68
5. G63A U96G U112A A118G = -1.58
6. A27U C56G = -4.07
7. G36U G120C = 0.124
8. A5C C40U U67C C104G C123G G128A = -6.57
9. C85G U132A = -1.6
10. C12U A27G G42A A90G G93U A95G = -2.39
11. G61C A111C = -1.98
12. C28U A50U = -2.92
13. G48A G71C A105C = -4.88
14. U112A U129A = 0.929
15. C34A G48A C73U C101A = -4.83
16. C8G A27U A29U G69U C101A C114U = -5.18
17. C12A C22G = -2.6
18. C8G A18C A37C G120C = 0.00671
19. A6U G69A C115U G120C = -5.82
20. U30G C49G G113C = -5.95
21. G57U A91G C114A U131A = -3.11
22. G39A C49G C62G A90C G113A = -6.39
23. C56U A90G G93C = -1.38
24. A16U C89A = -2.6
25. U78G C114U U129G = -4.71
26. C4U G36U = -1.82
27. A41U C89U C123A = -1.59
28. C3U U96A = -1.12
29. A6U C115G = -1.25
30. A91G = -0.586
31. G44U A90G U132C = -0.625
32. C12G G47A G48C A68G A103G A105C U106A G117U G120C = -7.36
33. G36C G61U C114A = -2.77
34. G44A C49A C85G C94A = -3.35
35. G10U A37U G52A G77C G120U = 0.713
36. C62U C98A = -5.51
37. U7C G39A C115U G128C = -3.58
38. C20A C49G G93A = -3.77
39. C56A G127A = -1.47
40. A5C C82G U92G U130G = -4.87
41. C20G G45U G61A = -4.19
42. C20A C56U = -2.54
43. U7C C31U G61C G71U C72G G120U = -5.19
44. C12U U21A C62G C104U = -2.05
45. C89G G93U G120U = -3.31
46. U54A C64U A95C = -0.888
47. A43U C123G = 0.036
48. A27G A50U G61A A83G U126G G128C = -5.38
49. C11A G71C G113A = -2.46
50. A6U U92A G117U = -5.86
51. C22G G39A C56U = -3.12
52. A27U U96G G110U = -7.43
53. G45C G93U A121U = -1.16
54. C22U A74U C101A = -5.04
55. A29G A41G = -1.22
56. G10U U14A C73A A83U = -1.57
57. C8G G36U = 0.298
58. C11A C40U G45A G61A U96G C124A = 0.365
59. C72U C86U G107U G113U = -6.11
60. C40U A74C G120A U131C = 0.155
61. U67A = -5.73
62. C28U G113A = -2
63. G42U C80U = -2.21
64. C53U U78C G120C = -0.0303
65. C22U G48U G71U C94A = -6.57
66. C73U G113A = -0.0568
67. U9G G63C C72A = -3.45
68. G42U C56G C73U G110A = -4.56
69. C76A A121U U125G = 0.374
70. C11G A26C G77U U81A C97U G113A = -6.37
71. G69C U92A = -5.61
72. G71A G93A G117A G120C = -2.99
73. G48A G122C C123G G127A = -2.37
74. A43G G52C C53A G61A U96C = -2.66
75. G44U A46G G117A C124U = -1.75
76. C28A A46U G77C A121C = -4.52
77. U9G G10C C11A C15A A37G C49G C85U A95U C123U = -3.19
78. A24G G57C A91G = -2.98
79. A2C G63U = -2.33
80. A43G C82G U87C G93U = -6.73
81. C8U C40U = 0.0119
82. G36U C40A U81A G120C G122A = -4.24
83. A26C G120C G127A = -5.53
84. C72G C82U C102A G120A = -1.89
85. C20A U32A G93C = -4.21
86. A41U G42C A95C = -4.1
87. A2C U116A = -4.2
88. C4U A68U A100U G117U = -5.92
89. A50C G63A U81A = -0.41
90. A24G C40U G71A C114A = -5.13
91. A83U G120A U125A = 0.929
